The reported numbers originate from paper PMC6321525.

Molecular target: EeAChE (acetylcholinesterase from Electrophorus electricus) (Electrophorus electricus, UniProt O42275)
Sequence (O42275 24-633): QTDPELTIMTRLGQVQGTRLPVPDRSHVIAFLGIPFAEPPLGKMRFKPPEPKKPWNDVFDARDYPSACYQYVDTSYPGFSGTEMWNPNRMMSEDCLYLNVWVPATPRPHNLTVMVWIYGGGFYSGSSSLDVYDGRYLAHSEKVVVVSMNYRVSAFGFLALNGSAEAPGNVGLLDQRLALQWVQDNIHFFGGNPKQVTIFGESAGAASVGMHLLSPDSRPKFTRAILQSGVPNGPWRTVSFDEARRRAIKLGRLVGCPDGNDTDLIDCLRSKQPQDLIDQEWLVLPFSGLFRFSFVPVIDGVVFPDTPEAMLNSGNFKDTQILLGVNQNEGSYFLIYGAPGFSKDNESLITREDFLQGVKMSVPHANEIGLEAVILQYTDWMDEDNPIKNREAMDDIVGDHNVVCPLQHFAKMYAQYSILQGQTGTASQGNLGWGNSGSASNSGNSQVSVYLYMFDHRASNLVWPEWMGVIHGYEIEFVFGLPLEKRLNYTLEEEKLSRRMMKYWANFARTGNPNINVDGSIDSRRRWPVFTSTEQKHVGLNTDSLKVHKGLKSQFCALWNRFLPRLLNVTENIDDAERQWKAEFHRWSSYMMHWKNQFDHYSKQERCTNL
Test: biochemical
Type: biochemical
Details: ratio of IC50 values
Quantity measured: fold enhanced potency against EeAChE compared to donepezil

Documented fold enhanced potency against EeAChE compared to donepezil of COc1cc2c(cc1OCc1c(F)cccc1F)C(=O)C(CC1CCN(Cc3ccccc3)CC1)C2 (stereo not drawn) : eight

# compound COc1cc2c(cc1OCc1c(F)cc(F)cc1F)C(=O)C(CC1CCN(Cc3ccccc3)CC1)C2 (stereo not drawn) ; its fold enhanced potency against EeAChE compared to donepezil = five

Form: compound = COc1cc2c(cc1OCc1ccccc1C(F)(F)F)C(=O)C(CC1CCN(Cc3ccccc3)CC1)C2 (stereo not drawn) ; fold enhanced potency against EeAChE compared to donepezil = 4 fold

====

pIC50: −log10 of the molar value.
Notes on pIC50 obtained with BACE1 (Homo sapiens, UniProt P56817).
Sequence (P56817 46-457): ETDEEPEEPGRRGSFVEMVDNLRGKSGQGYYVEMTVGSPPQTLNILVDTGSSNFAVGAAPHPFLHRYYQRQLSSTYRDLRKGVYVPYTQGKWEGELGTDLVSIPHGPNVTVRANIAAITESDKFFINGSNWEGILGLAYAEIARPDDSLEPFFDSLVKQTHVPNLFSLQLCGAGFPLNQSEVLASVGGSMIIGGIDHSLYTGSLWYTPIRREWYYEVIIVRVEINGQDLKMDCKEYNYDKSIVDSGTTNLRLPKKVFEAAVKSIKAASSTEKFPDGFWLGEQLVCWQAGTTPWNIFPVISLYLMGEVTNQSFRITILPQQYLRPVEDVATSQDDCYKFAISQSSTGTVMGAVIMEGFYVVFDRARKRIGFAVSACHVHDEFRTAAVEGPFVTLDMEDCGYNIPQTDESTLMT

Example entries begin here.
Short answer on BACE1 (Homo sapiens, UniProt P56817) for COc1cc2c(cc1OCc1ccc(F)cc1)C(=O)C(CC1CCN(Cc3ccccc3)CC1)C2 (stereo not drawn) , pIC50: ~4.00

For the compound COc1cc2c(cc1OCc1cc(F)ccc1F)C(=O)C(CC1CCN(Cc3ccccc3)CC1)C2 (stereo not drawn) , the measured pIC50 on BACE1 (Homo sapiens, UniProt P56817) was ~4.00

Further cases:
I looked up COc1cc2c(cc1OCCN)C(=O)C(CC1CCN(Cc3ccccc3)CC1)C2 (stereo not drawn) and its pIC50 for BACE1 (Homo sapiens, UniProt P56817) was ~4.00
